# Tested Target: hAM1R (human, UniProt Q16602)
# Protocol Summary: cell-based or functional assay
Numbered stars: 1 amine (or outer) side, 2 acyl side, 3 side chain; on linkers, the order of the positions; unused ones are H or OH. Bridge positions count the residues as written; N and C are the ends. Square brackets hold non-standard residues; d marks the D form. Ends that are not written are not given here. * marks the point of attachment. C20 diacid = O=C(O)CCCCCCCCCCCCCCCCCCC(=O)*; γGlu = O=C(O)[C@H](CCC(=O)[*:2])N[*:1]; Hyp = O=C(O)[C@@H]1C[C@@H](O)CN1; Cit = NC(=O)NCCC[C@H](N)C(=O)O
This listing pairs binders with measured hAM1R EC50 (cAMP).

Use the examples below as a reference point.
Binder: KCNTATCTVQRLAHQAYQFTDKDKDNVAPPTNVGSNG[Hyp]-NH2 (disulfide 2-7 (inferred); ends not checked) [SEQ ID NO: 210]
Recorded Measurement: > 5 µM
--
Binder: GCRFGTCTVQ[Cit]LAHQIYQFTDKDKDNVAPRSNVSPQG[Hyp]-NH2 (disulfide 2-7 (inferred); ends not checked) [SEQ ID NO: 293]
Recorded Measurement: > 5 µM
--
Binder: {C20 diacid-γGlu}-KCNTYTCTVQRLAHQIYQFTDKDKDNVAPPTNVGSNG[Hyp]-NH2 (disulfide 2-7 (inferred); ends not checked) [SEQ ID NO: 231]
Recorded Measurement: > 5 µM
--
Binder: KCNTATCTVQRLAEQIYQFTDKDKDNVAPPYNEGSNG[Hyp]-NH2 (disulfide 2-7 (inferred); ends not checked) [SEQ ID NO: 44]
Recorded Measurement: > 5 µM

Shifting focus to the binder that follows.
The reported value for {C20 diacid-γGlu}-KCNTATCTVQRLAEQIYQFTDKDKDNVAPPTNVGSNG[Hyp]-NH2 (disulfide 2-7 (inferred); ends not checked) [SEQ ID NO: 51] in terms of hAM1R EC50 (cAMP) is > 5 µM
